Test system: MDA-N
assay name: NCI tumour cell line growth inhibition, 48 h
assay readout: TGI

IN: Find the recorded TGI belonging to CCCCCCCCCC(=O)CC(=O)c1c(O)cc(O)cc1O and report it.
OUT: 38 µM

IN: Find the recorded TGI belonging to O=[N+]([O-])c1ccc(N2N=C(c3ccc4ccccc4c3O)CC2c2ccc(Cl)cc2Cl)c([N+](=O)[O-])c1 (stereo unspecified) and report it.
OUT: > 100 µM

IN: Find the recorded TGI belonging to N#CC(c1ccccc1)(c1ccccc1)[C@@H](c1ccccc1)[C@H](Cc1ccccc1)NS(=O)(=O)c1ccccc1 and report it.
OUT: > 100 µM

IN: Find the recorded TGI belonging to Cc1ccccc1NC(=O)C(=O)Cc1cnc2ccccc2n1 and report it.
OUT: > 100 µM

IN: Find the recorded TGI belonging to CC[N+](CC)(CC)/C(=N/S(=O)(=O)c1cc(C)c(Cl)cc1S)[N-]S(=O)(=O)c1ccc(Cl)cc1 and report it.
OUT: > 100 µM

IN: Find the recorded TGI belonging to O=C1CSC(/C=C/c2ccccc2)N1c1ccc(-n2c(-c3ccccc3)nc3ccccc3c2=O)cc1 (stereo unspecified) and report it.
OUT: > 100 µM

IN: Find the recorded TGI belonging to COc1ccc(C2C(Cl)C(=O)N2NC(=O)c2ccc(N)cc2)cc1OC (stereo unspecified) and report it.
OUT: 23.5 µM

IN: Find the recorded TGI belonging to COc1nc2c(c(=O)n1C)NC(C(O)C(O)CO)C=N2 (stereo unspecified) and report it.
OUT: > 10 µM

IN: Find the recorded TGI belonging to ClCC1(CCl)COC1 and report it.
OUT: > 100 µM

IN: Find the recorded TGI belonging to COP(=O)(C(/C=C/c1ccccc1)OC(C)=O)[C@@H]1CCCC[C@H]1N(CC(C)(C)C)C(C)=O (stereo partly specified) and report it.
OUT: 36.7 µM

IN: Find the recorded TGI belonging to CNC(=O)OCCN1c2ccccc2Sc2ccccc21 and report it.
OUT: > 100 µM

IN: Find the recorded TGI belonging to CCCCOc1ccc(S(=O)(=O)/N=C(\NN)Nc2ccc(Cl)cc2)cc1 and report it.
OUT: > 100 µM

IN: Find the recorded TGI belonging to Cc1ccc(S(=O)(=O)NCCSS(=O)(=O)c2ccc(C)cc2)cc1 and report it.
OUT: 56.8 µM

IN: Find the recorded TGI belonging to COc1cccc(-c2cc(=O)c3cccnc3[nH]2)c1 and report it.
OUT: 0.0394 µM

IN: Find the recorded TGI belonging to C=CCC1=CC2(OC)C(=O)C(OC)(OC)C1C1C(OC)(OC)C(=O)C(OC)=CC12CC=C (stereo unspecified) and report it.
OUT: > 100 µM

IN: Find the recorded TGI belonging to CN(C)/C=N/S(=O)(=O)c1nn2c(C=O)c(-c3ccc([N+](=O)[O-])cc3)nc2s1 and report it.
OUT: 17 µM
